Recorded values, source patent US20260248784A1.

# assay-text: Brain tissue distribution test in mice
# Format: in vivo
# measurement-context: mouse, IV 10 mg/kg, brain, read-out: T½ (converted)
measured-endpoint: half-life

compound	result-value
COc1ccc(F)cc1C(=O)NCc1ccc(-c2nc(-c3ccc(N4CCN(CC5CCN(c6ccc(C7CCC(=O)NC7=O)cc6)CC5)CC4)cc3)n3ccnc(N)c23)cc1 (stereo not shown)	9.39 h

----------
# assay-text: PK test in mice
# Format: in vivo
# measurement-context: mouse, PO 20 mg/kg, plasma

smiles-record	half-life [h]
COc1ccc(F)cc1C(=O)NCc1ccc(-c2nn(-c3ccc(N4CCN(CC5CCN(c6ccc(N7CCC(=O)NC7=O)c(C)c6)CC5)CC4)nc3)c3ncnc(N)c23)cc1	6.32

----------
# assay-text: Brain tissue distribution test in mice
# Assay type: in vivo
# measurement-context: mouse, IV 10 mg/kg, brain

molecule	value-unit	AUC(0-inf)
COc1ccc(F)cc1C(=O)NCc1ccc(-c2nc(-c3ccc(N4CCN(CC5CCN(c6ccc(C7CCC(=O)NC7=O)cc6)CC5)CC4)cc3)n3ccnc(N)c23)cc1 (stereo not shown)	ng·h/mL	2710

----------
# assay-text: PK test in mice
# Assay type: in vivo
# measurement-context: mouse, PO 20 mg/kg, plasma

smiles-record	AUC(0-inf) [ng·h/mL]
COc1ccc(F)cc1C(=O)NCc1ccc(-c2nn(-c3ccc(N4CCN(CC5CCN(c6ccc(N7CCC(=O)NC7=O)c(C)c6)CC5)CC4)nc3)c3ncnc(N)c23)cc1	92200

----------
Measured IC50 values are reported for all entries that follow.
# Test system: mino cells
# assay-text: Activity test in Mino cells (CCK8 proliferation inhibition)
# Format: cell-based
# measurement-context: Homo sapiens, 72 h, 3 days, read-out: Cell inhibition IC50

molecule	measured-on	IC50
COc1ccc(F)cc1C(=O)NCc1ccc(-c2nc(-c3ccc(N4CCN(CC5CCN(c6ccc(N7CCC(=O)NC7=O)c(C)c6)CC5)CC4)cc3)n3ccnc(N)c23)cc1F [Compound I-45]	mino cells	< 50 nM
COc1ccc(F)cc1C(=O)NCc1ccc(-n2c(=O)n(-c3ccc(N4CCN(CC5CCN(c6ccc(N7CCC(=O)NC7=O)c(C)c6)CC5)CC4)nc3)c3ccnc(N)c32)cc1 [Compound I-52]	mino cells	< 50 nM
COc1ccc(F)cc1C(=O)NCc1ccc(-c2nn(-c3ccc(N4CCN(CC5CCN(c6ccc(N7CCC(=O)NC7=O)c(C)c6)CC5)CC4)nc3)c3ncnc(N)c23)c(F)c1F [Compound I-43]	mino cells	< 50 nM
COc1ccc(F)cc1C(=O)NCc1ccc(-c2nn(-c3ccc(C4CCN(CC5CCN(c6ccc(N7CCC(=O)NC7=O)c(C)c6)CC5)CC4)cc3)c(N)c2C(N)=O)cc1 [Compound I-11]	mino cells	< 25 nM
COc1ccc(F)cc1C(=O)NCc1ccc(-c2nc(-c3ccc(C4=CCN(CC5CCN(c6ccc(N7CCC(=O)NC7=O)c(C)c6)CC5)CC4)cc3)n3ccnc(N)c23)cc1 [Compound I-50]	mino cells	< 25 nM

----------
# assay-text: PK test in mice
# Assay type: in vivo
# measurement-context: mouse, IV 5 mg/kg, plasma
measured-endpoint: AUC(0-inf) (ng·h/mL)

smiles-record	measured-endpoint	result-value
COc1ccc(F)cc1C(=O)NCc1ccc(-c2nn(-c3ccc(N4CCN(CC5CCN(c6ccc(N7CCC(=O)NC7=O)c(C)c6)CC5)CC4)nc3)c3ncnc(N)c23)cc1	AUC(0-inf)	44500
